# Test system: IGROV-1
# MEASUREMENT_NOTES: NCI tumour cell line growth inhibition, 48 h
The source made the active and inactive calls. Cut-off read from the data, not from the text of the source: active = GI50 up to about 1.1 µM and inactive = higher.
Outcomes: t = active, f = inactive

O=[N+]([O-])c1ccc(O)c(/C=N/CC2CCCN3CCCCC23)c1 (centres undefined)	f
NC(=S)N/N=C/C(=C/Nc1ccccc1)[N+](=O)[O-]	f
CCOC(=N)CC(=O)Nc1cccc(Cl)c1	f
CN(C(=O)C12C3C4C1C1C2C3C41I)C(C)(C)C (centres undefined)	f
[N-]=[N+]=NC[C@H]1OCO[C@H](CN=[N+]=[N-])[C@@H](OCCOCCCl)[C@@H]1OCCOCCCl	f
CCOC(=O)/C(C(C)=O)=C1/N[C@H](C(=O)OCC)CS1	f
CC1(C)C(=O)N(O)C(C)(C)N1O	f
O=C1C(c2ccccc2)=C(O)c2cccc3cccc1c23	f
O=C(OCC1OC2OC(c3ccccc3)(n3ccc4c([N+](=O)[O-])ccnc43)OC2C1OC(=O)c1ccccc1)c1ccccc1 (centres undefined)	f
c1cc2ccc3cc4ncccc4c4ccc(c1)c2c34	f
O=C1NC(=O)C2C1c1[nH]c3ccccc3c1C1CCCC12 (centres undefined)	f
CN1CCN(C(=S)N(C(=O)c2ccc(Cl)cc2)C2CCCCC2)CC1	f
COc1cccc(NC(=O)CC(=O)N2NC(C)C(/N=N/c3cccc(C(=O)O)c3)C2=O)c1 (centres undefined)	f
C#C[C@]1(O)CC[C@H]2[C@@H]3CCc4cc(O)ccc4[C@H]3CC[C@@]21C	f
COC1CC(C)C(OC)c2cc(O)cc(c2O)NC(=O)/C(C)=C/C=C\C(C)C(OC(N)=O)/C(C)=C\C(C)C1OC (centres undefined)	t
COc1ccc(/C=C/C(=O)Oc2ccccc2OC)cc1	f
CCOC(=O)C(=[N+]=[N-])C(=O)C1(C(=O)OCC)CCN(C(=O)c2ccccc2)C1=O (centres undefined)	f
COC[C@H]1OC(=O)c2coc3c2[C@@]1(C)C1=C(C3=O)[C@@H]2CCC(=O)[C@@]2(C)C[C@H]1OC(C)=O	f
CC1=CC(=O)/C(=C/N2C(=O)CNC2=S)C(=O)O1	f
CC1(C)N=C(c2ccccn2)C(c2ccccn2)=NC1(C)C	f
CN1C(=O)C(C)(C)C2(SC(C)(C)C2(C)C)N(C)C1=S (centres undefined)	f
Cc1nc(N)sc1C(=O)/C=C/c1ccc([N+](=O)[O-])cc1	f
C=C(C)COC(=O)COCC(=O)OCC(=C)C	f
COc1cc2ccc3ccncc3c2cc1OC	f
COC1(C(C)(C)C)C=C(C(C)(C)C)P(=O)(O)O1 (centres undefined)	f
O=[N+]([O-])c1cccnc1-n1cnc2ccccc21	f
CN(C)CCNCc1ccc2c(-c3ccccc3)nc3cc(Cl)c(Cl)cc3n12	f
CC(C)N1CCOC(c2ccc(O)c(O)c2)C1 (centres undefined)	f
C/C(=N\NC(N)=S)c1cc(C)c(C)cc1C	f
C[C@@H](NC(C#N)c1ccco1)c1ccccc1 (some centres undefined)	f
CCCCCCCCCCCC(=O)NCc1ccc(OC(=O)CCCCCCCCCCC)c(OC)c1	f
COc1cc(NC(C)=O)ccc1C(=O)N/N=C/c1ccc(Cl)cc1Cl	f
CN(CN1C(=O)C2Cc3ccccc3CN2C1=O)c1ccccn1 (centres undefined)	f
NCCSS(=O)(=O)CCN	f
CC1(C)O[C@H](C(=O)O)[C@@H](C(=O)O)O1	f
O=C(O)Cc1ccccc1CCc1ccccc1Cl	f
COc1cc(C2c3cc4c(cc3OC3(OC)COC(=O)C23)OCO4)cc(OC)c1OC (centres undefined)	t
O=C(Nc1ccc([N+](=O)[O-])cc1C(=O)O)c1ccc([N+](=O)[O-])cc1	f
O=C1c2ccccc2C(=O)c2[nH]c(Cc3ccc(F)cc3)nc21	f
Cc1ccc(NC(=O)C(=O)C2C(=O)NC(=O)NC2=O)c(C)c1	f
CCOCC(=O)N(C)c1cccc2c3c(n(C)c12)CCCCC3	f
C/C(O)=C/C(=O)c1[nH]c(C(=O)O)cc1C1CCN(Cc2ccccc2)C1=O (centres undefined)	f
CN(C)CCNC(=O)c1nc([N+](=O)[O-])cn1C	f
CC(=O)OC1=C(CC(C)(C)C)C(=O)c2ccccc2C1=O	f
